Assay: toxicokinetics experiment IV: long-term exposure of L4 and adult worms
Details: whole organism (worm homogenate), iv, 0.5 mg/L, k2f elimination rate constant of fluoxetine (k2FLX,sum), exp IV, with E. coli, 48 h
Counter-ions that a name gives are not always drawn.
valueKind: k el (s⁻¹)
Express the result in s⁻¹ but write the number alone.

Query k el for CNCCC(Oc1ccc(C(F)(F)F)cc1)c1ccccc1 (stereo not shown) [fluoxetine, Fluoxetine hydrochloride]
0.000336

====

Assay: toxicokinetics experiment IV: long-term exposure of L4 and adult worms
Conditions: whole organism (worm homogenate), iv, 20 mg/L, k2NF elimination rate constant of norfluoxetine, exp IV, with E. coli, 20 mg/L fluoxetine, 48 h
Procedure: Three replicates of 1500 pooled C. elegans were used for each time point for each concentration. For experiments with E. coli, the OD600 was kept constant at 0.4. […] A one-compartment model was selected since chemical concentrations could only be measured for the whole organism. […] The kinetic bioconcentration factor[33] was calculated with eq 3, and the ke and kt were only included when applicable to the respective experiment [drawing 4] […]
valueKind: k el (s⁻¹)
Express the result in s⁻¹ but write the number alone.

Query k el for NCCC(Oc1ccc(C(F)(F)F)cc1)c1ccccc1 (stereo not shown) [norfluoxetine]
3.06e-05

====

Test: toxicokinetics experiment II: short-term uptake of different concentrations
Assay type: in vivo, Caenorhabditis elegans
Settings: whole organism (worm homogenate), 0.5 mg/L, k2f elimination rate constant of fluoxetine (k2FLX,sum), exp II, no E. coli, 2 h, k2FLX constrained (value of experiment I)
Where a name gives a salt, the structure may show the parent alone.
valueKind: k el (s⁻¹)
Express the result in s⁻¹ but write the number alone.

Query k el for CNCCC(Oc1ccc(C(F)(F)F)cc1)c1ccccc1 (stereo not shown) [fluoxetine, Fluoxetine hydrochloride]
0.000394

====

Assay: toxicokinetics experiment III: effect of E. coli on uptake
Type: in vivo, Caenorhabditis elegans
Conditions: whole organism (worm homogenate), 10 mg/L, exp III, with E. coli, 10 mg/L fluoxetine, 10 h, no constraint; read-out: k2NF elimination rate constant of norfluoxetine (converted)
Procedure: In between cycles, the samples were kept on ice. […] Samples were stored at −20 °C until further analysis. All parameters and units are summarized in SI A3.
valueKind: k el (s⁻¹)
Express the result in s⁻¹ but write the number alone.

Query k el for NCCC(Oc1ccc(C(F)(F)F)cc1)c1ccccc1 (stereo not shown)
3.33e-05

====

Assay: toxicokinetics experiment II: short-term uptake of different concentrations
Assay type: in vivo, Caenorhabditis elegans
Conditions: whole organism (homogenate of pooled worms), 20 mg/L, k2f elimination rate constant of fluoxetine (k2FLX,sum), exp II, no E. coli, 2 h, k2FLX constrained (value of experiment I)
Structures can show the parent of a compound that is named as a salt.
valueKind: k el (s⁻¹)
Express the result in s⁻¹ but write the number alone.

Query k el for CNCCC(Oc1ccc(C(F)(F)F)cc1)c1ccccc1 (stereo not shown) [fluoxetine, Fluoxetine hydrochloride]
0.000394

====

Experiment: toxicokinetics experiment IV: long-term exposure of L4 and adult worms
Conditions: whole organism (worm homogenate), iv, 20 mg/L, ke extra metabolism rate constant after 10 h, exp IV, with E. coli, 20 mg/L, 48 h
Description: Three replicates of 1500 pooled C. elegans were used for each time point for each concentration. For experiments with E. coli, the OD600 was kept constant at 0.4. […] A one-compartment model was selected since chemical concentrations could only be measured for the whole organism. […] The kinetic bioconcentration factor[33] was calculated with eq 3, and the ke and kt were only included when applicable to the respective experiment [drawing 4] […]
Structures can show the parent of a compound that is named as a salt.
valueKind: k el (s⁻¹)
Express the result in s⁻¹ but write the number alone.

Query k el for CNCCC(Oc1ccc(C(F)(F)F)cc1)c1ccccc1 (stereo not shown) [fluoxetine, Fluoxetine hydrochloride]
0.000144

====

Test: toxicokinetics experiment II: short-term uptake of different concentrations
Format: in vivo, Caenorhabditis elegans
Settings: whole organism (homogenate of pooled worms), 5 mg/L, k2f elimination rate constant of fluoxetine (k2FLX,sum), exp II, no E. coli, 2 h, k2FLX constrained (value of experiment I)
Where a name gives a salt, the structure may show the parent alone.
valueKind: k el

Query k el for CNCCC(Oc1ccc(C(F)(F)F)cc1)c1ccccc1 (stereo not shown) [fluoxetine, Fluoxetine hydrochloride]
0.000394 s⁻¹

====

Test: toxicokinetics experiment III: effect of E. coli on uptake
Format: in vivo, Caenorhabditis elegans
Conditions: whole organism (homogenate of pooled worms), 10 mg/L, k2f elimination rate constant of fluoxetine (k2FLX,sum), exp III, no E. coli, 10 h
Structures can show the parent of a compound that is named as a salt.
valueKind: k el (s⁻¹)
Express the result in s⁻¹ but write the number alone.

Query k el for CNCCC(Oc1ccc(C(F)(F)F)cc1)c1ccccc1 (stereo not shown) [fluoxetine, Fluoxetine hydrochloride]
0.000461

====

Assay: toxicokinetics experiment II: short-term uptake of different concentrations
Assay type: in vivo, Caenorhabditis elegans
Details: whole organism (worm homogenate), 0.5 mg/L, k2f elimination rate constant of fluoxetine (k2FLX,sum), exp II, no E. coli, 2 h, no constraint
Method: In between cycles, the samples were kept on ice. […] Samples were stored at −20 °C until further analysis. All parameters and units are summarized in SI A3.
Structures can show the parent of a compound that is named as a salt.
valueKind: k el
Reply with the number and its unit after it.

Query k el for CNCCC(Oc1ccc(C(F)(F)F)cc1)c1ccccc1 (stereo not shown) [fluoxetine, Fluoxetine hydrochloride]
0.000981 s⁻¹

====

Experiment: toxicokinetics experiment III: effect of E. coli on uptake
Assay type: in vivo, Caenorhabditis elegans
Settings: whole organism (worm homogenate), 10 mg/L, exp III, with E. coli, 10 mg/L fluoxetine, 10 h, k1, k2FLX, k2NF, kt constrained (eq 1b); read-out: k2NF elimination rate constant of norfluoxetine (converted)
valueKind: k el (s⁻¹)
Express the result in s⁻¹ but write the number alone.

Query k el for NCCC(Oc1ccc(C(F)(F)F)cc1)c1ccccc1 (stereo not shown)
2.78e-08

====

Assay: toxicokinetics experiment III: effect of E. coli on uptake
Assay type: in vivo, Caenorhabditis elegans
Settings: whole organism (worm homogenate), 10 mg/L, k2f elimination rate constant of fluoxetine (k2FLX,sum), exp III, with E. coli, 10 h, no constraint
Counter-ions that a name gives are not always drawn.
valueKind: k el
Reply with the number and its unit after it.

Query k el for CNCCC(Oc1ccc(C(F)(F)F)cc1)c1ccccc1 (stereo not shown) [fluoxetine, Fluoxetine hydrochloride]
0.000111 s⁻¹

====

Assay: toxicokinetics experiment IV: long-term exposure of L4 and adult worms
Settings: whole organism (worm homogenate), iv, 20 mg/L, k2f elimination rate constant of fluoxetine (k2FLX,sum), exp IV, with E. coli, 48 h
Counter-ions that a name gives are not always drawn.
valueKind: k el (s⁻¹)
Express the result in s⁻¹ but write the number alone.

Query k el for CNCCC(Oc1ccc(C(F)(F)F)cc1)c1ccccc1 (stereo not shown) [fluoxetine, Fluoxetine hydrochloride]
0.000233

The measured values listed here are drawn from paper PMC10882974.
